Tested on: NCI-H23 lung
protocol-summary: NCI-60 one-dose screen, 48 h (100 = growth as untreated, 0 = no growth, -100 = all killed)
assay-conditions: 10 µM unless noted
About 83,000 compounds went through this panel and 20% of them were active in at least one assay; those are over-represented in the sample as a whole. Calls of active or inactive are those of the source. The calls were made as follows: active = growth percent below 10; inactive = the rest.
Would you kindly list growth for each of these molecules?

Worked examples follow.
NN=C(c1ccc(Cl)cc1)c1ccc(Cl)cc1 | 94.3% (inactive)
O=C1/C(=C/c2cccc3cnccc23)Cc2cc(F)ccc21 | 87.7% (inactive)
O=C1c2ccccc2OC=C(c2ccccc2)N1CCCCN1CCCCC1 | 67.2% (inactive)
CC(C)(C)OC(=O)N1CCN(CCn2cc(C(F)(F)F)c3c(Cl)ncnc32)CC1 | 44.8% (inactive)
Cc1cccc(Cc2cnc(NC(=O)CCc3ccc(C)o3)s2)c1 | 35.3% (inactive)

// each listed molecule needs a value for growth
1. Cc1ccc2nc(-c3ccc(-n4on4-c4ccc(/C=C/c5ccc(-n6on6-c6ccc(-c7nc8ccc(C)cc8s7)cc6)cc5S(=O)(=O)O)c(S(=O)(=O)O)c4)cc3)sc2c1
2. COc1cc(NC(C)CCCN2C(=O)c3ccccc3C2=O)c2ncccc2c1OC (centres undefined)
3. N#CC(C#N)=C(C#N)c1c[nH]c2ccccc12
4. Cc1nc(-c2ccc(Cl)cc2)ccc1NC(=O)Nc1cccc(C(F)(F)F)c1
5. O=C(c1cc(-c2ccc(Cl)cc2)nc2ccccc12)N1N=C(c2ccccc2)CC1c1cc(-c2ccccc2)nn1-c1ccccc1 (centres undefined)

OUTPUT:
["105% (inactive)", "91.6% (inactive)", "87.4% (inactive)", "95.6% (inactive)", "72.5% (inactive)"]

// each listed molecule needs a value for growth
1. O=c1c2ccccc2sc2c(NCCN3CCOCC3)nc3ccccc3c12
2. O=S(=O)(CCN1CCOCC1)Nc1cc(-c2ccc3ncnc(Nc4ccc(F)c(Cl)c4)c3c2)cnc1Cl
3. C[C@H]1C=C(C[C@@H](O)CC#CC#CCCCCC[C@@H](O)[C@H]2CCC(=O)O2)C(=O)O1
4. CCC1S/C(=N\N=C(/C)c2cccs2)N(c2ccccc2)C1=O (centres undefined)

OUTPUT:
1: 68% (inactive); 2: 28% (inactive); 3: 99.9% (inactive); 4: 101% (inactive)
